Would you kindly list Ki for each of these compounds?
Molecular target: Lipopolysaccharide heptosyltransferase 1 (Escherichia coli (strain K12))
Sequence (P24173 whole entry): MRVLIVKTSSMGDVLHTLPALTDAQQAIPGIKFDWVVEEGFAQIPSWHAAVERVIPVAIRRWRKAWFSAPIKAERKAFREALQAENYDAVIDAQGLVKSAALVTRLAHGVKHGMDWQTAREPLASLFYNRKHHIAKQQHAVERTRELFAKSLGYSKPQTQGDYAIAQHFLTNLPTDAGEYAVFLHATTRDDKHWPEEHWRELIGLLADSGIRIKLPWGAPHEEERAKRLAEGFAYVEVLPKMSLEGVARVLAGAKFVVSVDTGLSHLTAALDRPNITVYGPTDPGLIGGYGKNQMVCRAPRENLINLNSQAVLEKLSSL
Assay: Inhibition of Escherichia coli Heptosyltransferase I assessed as reduction in ADP release using ODLA and ADP-heptose substrates in presence of phospho(enol)pyruvate and NADH by pyruvate kinase and LDH based ADP/NADH coupling assay
One number for each entry, in µM.

Sample answers from the record:
CO[C@H]1O[C@H](CO)[C@@H](O)[C@H](O)[C@H]1O :: 370
CCCC/C=C/CO[C@@H]1O[C@H](CO)[C@H](O)[C@H](O)[C@H]1O :: 570

Give Ki (Lipopolysaccharide heptosyltransferase 1 (Escherichia coli (strain K12))) of the following compound: OC[C@H]1OC(O)[C@H](O)[C@@H](O)[C@@H]1O (stereo partly drawn) 280
